Target: T1, recombinant human TIGIT (human, UniProt Q495A1 22-141, limits assumed)
T1 construct: recombinant human TIGIT used in Carterra SPR; also called hTIGIT
T1 sequence (looked up): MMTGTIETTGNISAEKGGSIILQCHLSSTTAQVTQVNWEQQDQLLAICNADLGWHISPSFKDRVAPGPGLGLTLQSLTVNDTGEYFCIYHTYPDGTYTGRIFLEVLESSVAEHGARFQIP
Test: SPR Carterra, average
Experimental: Binding affinities of VHH-Fc proteins to recombinant human TIGIT were measured by SPR using a Carterra instrument (Table 10A). […] Average values reported from measurements from 1-2 samples.
Assign pKd to each entry below.
Convention used: pKd is expressed as -log10 of the molar concentration.

Give the measured pKd for TIGIT-SC190 (Fc fusion, VHH-Fc fusion in assay) VHH: EVQLVESGGGLVQPGGSLRLSCAASGFTFDRSWMGWFRQAPGKEREWVASVLRGGYTWYADSVKGRFTISADNSKNTAYLQMNSLKPEDTAVYYCVTDVGAPDYWGQGTLVTVSS
7.61

Give the measured pKd for TIGIT-SC120 (Fc fusion, VHH-Fc fusion in assay) VHH: EVQLVESGGGLVQPGGSLRLSCAASGFTFSPSWMGWFRQAPGKEREWVASVLRGGYTWYADSVKGRFTISADNSKNTAYLQMNSLKPEDTAVYYCAKDGGWFDPWGQGTLVTVSS
7.18

Give the measured pKd for TIGIT-SC128 (Fc fusion, VHH-Fc fusion in assay) VHH: EVQLVESGGGLVQPGGSLRLSCAASGFIGNYHAMGWFRQAPGKEREFVARITSGGSTYYADSVKGRFTISADNSKNTAYLQMNSLKPEDTAVYYCGGFGNWGQGTLVTVSS
7.34

Give the measured pKd for TIGIT-SC208 (Fc fusion, VHH-Fc fusion in assay) VHH: EVQLVESGGGLVQPGGSLRLSCAASGFLFDSYVMGWFRQAPGKEREFVAAIWRSGTLKAYADSVKGRFTISADNSKNTEYLQMNSLKPEDTAVYYCARDDYGDTRRYFQHWGQGTLVTVSS
6.07
